Property: MTC; scope: individual compounds
- System: Mus musculus
- procedure text: Neurotoxicity against ip dosed Mus musculus Swiss albino (mouse) at 0.5 hr by rota rod test
- Type: toxicity, organism-based
- condition info: in vivo
measured metric: MTC

| compound | measured metric | val |
| --- | --- | --- |
| Clc1ccccc1/C=N/Cc1cccnc1 | MTC | 300 mg/kg |
| COc1ccc(/C=N/Cc2cccnc2)cc1O | MTC | 300 mg/kg |
| Clc1ccc(/C=N/Cc2cccnc2)cc1 | MTC | 100 mg/kg |
| C(=N\Cc1cccnc1)/c1ccccc1 | MTC | 100 mg/kg |
| C/C(=N\Cc1cccnc1)c1cccc(N)c1 | MTC | 100 mg/kg |
| CC12CCC(C/C1=N/Cc1cccnc1)C2(C)C (stereo unspecified) | MTC | 300 mg/kg |
| C(=N\Cc1cccnc1)/c1c[nH]c2ccccc12 | MTC | 100 mg/kg |
| C(=C\c1ccccc1)/C=N/Cc1cccnc1 | MTC | 100 mg/kg |
| COc1cc(/C=N/Cc2cccnc2)ccc1O | MTC | 300 mg/kg |
| COc1ccccc1/C=N/Cc1cccnc1 | MTC | 300 mg/kg |
| OC(/C(=N\Cc1cccnc1)c1ccccc1)c1ccccc1 (stereo unspecified) | MTC | 30 mg/kg |

---

Property: selectivity ratio; scope: individual compounds
- procedure text: Protection index, ratio TD50 for neurotoxicity to ED50 for protection against maximal electroshock-induced seizure in Mus musculus Swiss albino (mouse)
- Type: toxicity, organism-based
- condition info: in vivo, read-out: Ratio TD50/ED50

| compound | comparison symbol | selectivity ratio |
| --- | --- | --- |
| C(=N\Cc1cccnc1)/c1c[nH]c2ccccc12 | > | 10 |
| CC12CCC(C/C1=N/Cc1cccnc1)C2(C)C (stereo not drawn) | = | 5.45 |
| COc1ccc(/C=N/Cc2cccnc2)cc1O | = | 31 |

---

Property: minimal effective dose; scope: individual compounds
- Test system: Mus musculus
- procedure text: Anticonvulsant activity in ip dosed Mus musculus Swiss albino (mouse) assessed as protection against pentylenetetrazole-induced seizure at 4 hr
- Type: functional
- condition info: read-out: MED

| compound | unit tag | minimal effective dose |
| --- | --- | --- |
| c1cncc(CN=C2CCCCC2)c1 | mg/kg | 30 |
| COc1cc(/C=N/Cc2cccnc2)ccc1O | mg/kg | 30 |
| C(=N\Cc1cccnc1)/c1c[nH]c2ccccc12 | mg/kg | 30 |
| C/C(=N\Cc1cccnc1)c1ccccc1 | mg/kg | 30 |
| COc1ccc(/C=N/Cc2cccnc2)cc1OC | mg/kg | 30 |
| O=[N+]([O-])c1ccc(/C=N/Cc2cccnc2)cc1 | mg/kg | 300 |
| CC12CCC(C/C1=N/Cc1cccnc1)C2(C)C (configuration not stated) | mg/kg | 100 |

---

- procedure text: Neurotoxicity against ip dosed Mus musculus Swiss albino (mouse) by rota rod test
- Format: toxicity, organism-based
- condition info: in vivo
Hi! Could you tag entries with TD50 below 100 mg/kg as Yes, and those at or above as No? Much appreciated.

| compound | label value |
| --- | --- |
| c1cncc(CN=C2CCCCC2)c1 | No |
| c1ccc(C(=NCc2cccnc2)c2ccccc2)cc1 | No |
| COc1ccc(/C=N/Cc2cccnc2)cc1O | No |
| COc1ccc(/C=N/Cc2cccnc2)cc1OC | No |
| O=[N+]([O-])c1ccc(/C=N/Cc2cccnc2)cc1 | No |
| OC(/C(=N\Cc1cccnc1)c1ccccc1)c1ccccc1 (configuration not stated) | Yes |
| Clc1ccc(/C=N/Cc2cccnc2)cc1 | No |
| COc1cc(/C=N/Cc2cccnc2)ccc1O | No |
| C(=C\c1ccccc1)/C=N/Cc1cccnc1 | Yes |
| COc1ccccc1/C=N/Cc1cccnc1 | No |
| C/C(=N\Cc1cccnc1)c1cccc(N)c1 | Yes |
| COc1cc(/C=N/Cc2cccnc2)cc(OC)c1OC | No |
| CC12CCC(C/C1=N/Cc1cccnc1)C2(C)C (configuration not stated) | No |
| C(=N\Cc1cccnc1)/c1c[nH]c2ccccc12 | No |
| C/C(=N\Cc1cccnc1)c1ccccc1 | No |
| Clc1ccccc1/C=N/Cc1cccnc1 | No |
| C(=N\Cc1cccnc1)/c1ccccc1 | No |
